- Tested on: Spodoptera litura; also: test concentration or dose not given here
- Method Notes: Antifeedant activity in Spodoptera litura third-instar larvae assessed as larval duration time after 24 hrs by leaf disk method (reference value: 10.1 +/- 0.1 day)
- Assay type: functional
Measurement Label: Time
Write your answer as a measured quantity: the number, then the unit.

Ask: For the record `CC1(C)C[C@@H](O)[C@]2(C)CC[C@]3(C)C(=CC[C@@H]4[C@@]5(C)CC[C@H](O)[C@](C)(CO)[C@@H]5CC[C@]43C)[C@@H]2C1` , what value of Time is listed for Spodoptera litura?
Result: 12.1 days

Ask: Continue with `CC(C)(O)[C@@H]1CC[C@](C)([C@H]2[C@@H](O)C[C@@]3(C)[C@@H]4C[C@H](O)[C@H]5C(C)(C)[C@@H](O)CC[C@@]56C[C@@]46CC[C@]23C)O1`
Result: 14.2 days

Ask: Continue with `C[C@@H]1C[C@H]([C@H](O)C(C)(C)O)O[C@H]2O[C@H](O)[C@@]3(C)[C@@H]4CC[C@H]5C(C)(C)C(=O)CC[C@@]56C[C@@]46CC[C@]3(C)[C@H]21`
Result: 12.6 days

Ask: Continue with `CC(C)(O)[C@@H]1CC[C@](C)([C@H]2[C@@H](O)C[C@@]3(C)[C@@H]4C[C@H](O)[C@H]5C(C)(C)[C@@H](O[C@@H]6OC[C@@H](O)[C@H](O)[C@H]6O)CC[C@@]56C[C@@]46CC[C@]23C)O1`
Result: 13.4 days

Ask: Continue with `CC(=O)O[C@H]1[C@H](O[C@H]2CC[C@]34C[C@]35CC[C@]3(C)[C@@H]([C@@]6(C)CC[C@@H](C(C)(C)O)O6)[C@@H](O)C[C@@]3(C)[C@@H]5C[C@H](O)[C@H]4C2(C)C)OC[C@@H](O)[C@@H]1O`
Result: 13.4 days

Ask: Continue with `CC1(C)CC[C@]2(C)CC[C@]3(C)C(=CC[C@@H]4[C@@]5(C)CC[C@H](O)C(C)(C)[C@@H]5CC[C@]43C)[C@@H]2C1`
Result: 11.5 days

Ask: Continue with `C[C@@H]1C[C@H]([C@H](O)C(C)(C)O)O[C@H]2OC(=O)[C@@]3(C)[C@@H]4CC[C@H]5C(C)(C)C(=O)C=C[C@@]56C[C@@]46CC[C@]3(C)[C@H]21`
Result: 11.9 days
